- Species: Sus scrofa
- experiment.summary: Enhancement of theophylline transdermal penetration through porcine ear skin using Franz diffusion cell in water medium relative to control
- Assay type: ADME, organism-based
- condition.summary: pig
experimental.endpoint: Ratio

compound | Ratio
CCCCCCCCCCCCNC(=O)CCCCCOC(=O)OCCCCCC(=O)NCCCCCCCCCCCC | 0.91
CCCCCCCCCCCCOC(=O)CCCCCCOC(=O)NCCCCCC(=O)OCCCCCCCCCCCC | 1.22
CCCCCCCCCCCCOC(=O)CCCCCCOC(=O)OCCCCCC(=O)OCCCCCCCCCCCC | 0.8
CCCCCCCCCCCCNC(=O)CCC(C)OC(=O)OCC (centres undefined) | 1.48

A = CCCCCCCCCCCCOC(=O)CCCCCN.CCCCCCCCCCCCOC(=O)CCCCCNC(=O)O [TRANSKARBAM 12]
B = CCCCCCCCCCNC(=O)CCCCCOC(=O)OCC
C = CCCCCCCCCCCCOC(=O)CCCCCNC(=O)OCCCCCCCCCCCC
D = CCCCCCCCCCCCOC(=O)OCCCCCC(=O)NCCCCCCCCCC
Arrange items by their Ratio values in increasing order. Your answer should be the labels, listed in the requested order.
C, D, A, B

P = CCCCCCCCCCCCOC(=O)CCCCCOC(=O)OCCCCCCCCCCCC
Q = CCCCCCCCCCCCNC(=O)CCC(C)OC(=O)OCCCCCCCCCCCC (centres undefined)
Could you determine which record has the numerically smaller Ratio? Candidates: P and Q Respond using the label that marks the chosen record.
Q

* * *

- Species on record: Sus scrofa
- experiment.summary: Enhancement of theophylline transdermal penetration through porcine ear skin using Franz diffusion cell in isopropylmyristate medium relative to control
- Type: ADME, organism-based
- condition.summary: pig
experimental.endpoint: Ratio

compound | Ratio
CCCCCCCCCCCCOC(=O)CCCCCOC(=O)OCCCCCC(=O)OCCCCCCCCCCCC | 1.39

P = CCCCCCCCCCCCOC(=O)CCCCCOC(=O)OCC
Q = CCCCCCCCCCCCNC(=O)CCC(C)OC(=O)OCC (stereo not drawn)
Endpoint returns whichever of P and Q has the numerically higher Ratio. Respond using the label that marks the chosen record.
Q

* * *

- Species: Sus scrofa
- experiment.summary: Enhancement of theophylline transdermal penetration through porcine ear skin using Franz diffusion cell in isopropylmyristate medium relative to control
- Type: ADME, organism-based
- condition.summary: pig
experimental.endpoint: Ratio

molecular.string | Ratio
CCCCCCCCCCCCOC(=O)CCCCCCOC(=O)OCCCCCC(=O)OCCCCCCCCCCCC | 1.49
CCCCCCCCCCCCOC(=O)CCCCCOC(=O)OCCCCCCCCCCCC | 1.29
CCCCCCCCCCCCOC(=O)CCCCCNC(=O)OCCCCCC(=O)OCCCCCCCCCCCC | 1.29
CCCCCCCCCCCCOC(=O)CCCCCCOC(=O)NCCCCCC(=O)OCCCCCCCCCCCC | 1.07

* * *

- Organism: Sus scrofa
- experiment.summary: Enhancement of theophylline transdermal penetration through porcine ear skin using Franz diffusion cell in water medium relative to control
- Format: ADME, organism-based
- condition.summary: pig
experimental.endpoint: Ratio

molecular.string | Ratio
CCCCCCCCCCCCOC(=O)CCCCCNC(=O)OCC | 1.83
CCCCCCCCCCCCOC(=O)CCCCCOC(=O)OCC | 2.4
CCCCCCCCCCCCOC(=O)CCCCCOC(=O)OCCCCCC(=O)OCCCCCCCCCCCC | 1.76
CCCCCCCCCCCCOC(=O)CCCCCNC(=O)OCCCCCC(=O)OCCCCCCCCCCCC | 2.27

These measurements were taken from ChEMBL document CHEMBL1146104.
